List of Ratio values.
target: Muscarinic receptor M2 and M3 (Rattus norvegicus) (UniProt P08483+P10980); experiment: Ratio of binding affinity for muscarinic M3 receptor to muscarinic M2 receptor; type: protein assay
Sequence (P08483 whole entry, looked up): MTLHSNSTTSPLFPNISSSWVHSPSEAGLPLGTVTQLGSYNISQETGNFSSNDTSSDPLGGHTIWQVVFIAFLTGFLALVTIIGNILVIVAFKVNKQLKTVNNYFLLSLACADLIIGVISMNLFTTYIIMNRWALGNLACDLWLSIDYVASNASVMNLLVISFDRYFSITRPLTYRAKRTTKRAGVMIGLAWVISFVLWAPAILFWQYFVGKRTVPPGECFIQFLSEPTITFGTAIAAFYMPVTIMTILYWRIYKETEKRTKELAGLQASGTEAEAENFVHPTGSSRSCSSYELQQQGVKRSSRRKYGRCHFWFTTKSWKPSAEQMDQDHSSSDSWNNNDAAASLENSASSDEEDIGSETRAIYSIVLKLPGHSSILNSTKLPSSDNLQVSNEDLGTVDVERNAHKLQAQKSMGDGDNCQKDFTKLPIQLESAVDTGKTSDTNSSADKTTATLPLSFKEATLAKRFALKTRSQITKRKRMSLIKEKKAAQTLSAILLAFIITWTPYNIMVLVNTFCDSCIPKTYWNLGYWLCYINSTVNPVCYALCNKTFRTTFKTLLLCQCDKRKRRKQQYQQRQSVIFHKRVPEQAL
Sequence (P10980 whole entry, looked up): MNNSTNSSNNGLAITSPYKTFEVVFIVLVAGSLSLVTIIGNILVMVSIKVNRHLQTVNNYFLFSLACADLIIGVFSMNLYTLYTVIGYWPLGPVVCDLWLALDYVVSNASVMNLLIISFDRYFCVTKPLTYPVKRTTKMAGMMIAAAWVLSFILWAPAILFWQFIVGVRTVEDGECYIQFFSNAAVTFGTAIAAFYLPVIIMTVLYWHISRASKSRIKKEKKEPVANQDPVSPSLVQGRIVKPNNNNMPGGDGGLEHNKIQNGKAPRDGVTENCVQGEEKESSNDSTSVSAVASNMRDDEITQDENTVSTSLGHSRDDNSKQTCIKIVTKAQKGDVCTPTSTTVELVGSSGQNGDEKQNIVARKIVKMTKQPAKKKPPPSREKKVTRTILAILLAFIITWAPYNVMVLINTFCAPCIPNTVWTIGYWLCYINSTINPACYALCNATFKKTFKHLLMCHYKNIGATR

compound	Ratio
COc1ccc(S(=O)(=O)c2ccc(C3(C4CCN(C5CCN(C(=O)c6cccc(C)c6C)CC5)CC4)OCCO3)cc2)cc1	40
Cc1ccccc1C(=O)N1CCC(N2CCC(C3(c4ccc(S(=O)(=O)c5ccc6c(c5)OCO6)cc4)OCCO3)CC2)CC1	8
COc1ccc([S+]([O-])c2ccc(C3(C4CCN(C5CCN(C(=O)c6ccccc6C)CC5)CC4)OCCO3)cc2)cc1 (stereo not given)	35
COc1ccc(S(=O)(=O)c2ccc(C3(C4CCN(C5CCN(C(=O)c6ccccc6C)CC5)CC4)SCCS3)cc2)cc1	15
COc1ccc(S(=O)(=O)c2ccc(C3(C4CCN(C5CCN(C(=O)c6ccccc6F)CC5)CC4)OCCO3)cc2)cc1	8
